# tested.on: T1, human transforming growth factor β1 (human, UniProt P01137 279-390)
# T1 construct: Coated on the ELISA plate at 100 ng/well; also called hTGF-β1; TGF-β
# protocol: ELISA, plate-coated hTGF-β1
measure.name: pEC50
One number for each entry, as −log10 of the molar value.

pEC50 reading for antibody m107-hu (antibody, V domains shown, Humanized m107) VH: QVQLVQSGAEVKRPGASVKVSCKASGYTFSAYTIHWVKQRPGQGLEWIGYINPSNDFAKYIQKFKDKVTITADKSTSTAYMELNSLRSEDTAVYYCARVDYYGGSYRWYLDVWGQGTTVTVSS VL: DIVLTQSPATLSLSPGERATLSCRASQSISNNLHWYQQKPGEAPRLLIKYTSQSISGIPARFSGSGSGTDFTLTISSLEPEDFAVYFCQQSNSWPIFTFGQGTKLEIK : 8.12
